The measured values listed here are drawn from paper PMC10247784.

Target: human TAS2R4 (Homo sapiens, UniProt Q9NYW5)
Construct: expressed in transfected cells; host or cells: HEK293T-Gα16gust44
Sequence (Q9NYW5 1-299): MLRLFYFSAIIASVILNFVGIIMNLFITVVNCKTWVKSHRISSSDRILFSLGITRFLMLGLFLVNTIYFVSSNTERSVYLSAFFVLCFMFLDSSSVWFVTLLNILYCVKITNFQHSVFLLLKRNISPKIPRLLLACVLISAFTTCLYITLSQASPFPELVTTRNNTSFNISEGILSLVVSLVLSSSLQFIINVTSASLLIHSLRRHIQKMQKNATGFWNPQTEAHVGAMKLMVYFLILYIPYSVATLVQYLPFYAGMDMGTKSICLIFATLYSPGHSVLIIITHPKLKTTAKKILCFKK
Assay: Calcium imaging assay (FLIPR), HEK293T-Gα16gust44 cells transfected with human TAS2R4; further: test concentration or dose not given here
Type: cell-based
Settings: Time (s) 293.547
Reported RLU, fluorescence trace is given for each of the following compounds.
Supply the numeric figure in RLU, leaving out any unit text.

C[C@H](CCC(=O)NCCS(=O)(=O)O)[C@H]1CC[C@H]2[C@@H]3CC[C@@H]4C[C@H](O)CC[C@]4(C)[C@H]3CC[C@]12C :: 136.191

Task item: Entry C[C@H](CCC(=O)O)[C@H]1CC[C@H]2[C@@H]3[C@H](O)C[C@@H]4C[C@H](O)CC[C@]4(C)[C@H]3C[C@H](O)[C@]12C has what RLU, fluorescence trace?
Reply: 239.384

Task item: Entry C[C@H](CCC(=O)O)[C@H]1CC[C@H]2[C@@H]3CC[C@@H]4C[C@H](O)CC[C@]4(C)[C@H]3C[C@H](O)[C@]12C has what RLU, fluorescence trace?
Reply: 411.409

* * *

Target: mouse Tas2r105 (Mus musculus, UniProt Q9JKT4)
Construct: expressed in transfected cells; host or cells: HEK293T-Gα16gust44
Sequence (Q9JKT4 1-300): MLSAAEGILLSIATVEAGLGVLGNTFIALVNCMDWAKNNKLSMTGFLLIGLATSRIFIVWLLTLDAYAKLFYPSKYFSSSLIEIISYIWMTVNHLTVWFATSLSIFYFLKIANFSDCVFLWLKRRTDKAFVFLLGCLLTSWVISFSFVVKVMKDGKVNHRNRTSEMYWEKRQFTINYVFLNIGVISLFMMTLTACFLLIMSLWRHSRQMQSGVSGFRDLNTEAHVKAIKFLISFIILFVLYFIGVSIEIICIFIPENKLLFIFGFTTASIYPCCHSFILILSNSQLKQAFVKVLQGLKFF
Assay: Calcium imaging assay (FLIPR), HEK293T-Gα16gust44 cells transfected with mouse Tas2r105
Type: cell-based
Conditions: Time 32.781 s
Reported RLU is given for each of the following molecules.
Supply the numeric figure in RLU, leaving out any unit text.

C[C@H](CCC(=O)NCC(=O)O)[C@H]1CC[C@H]2[C@@H]3[C@H](O)C[C@@H]4C[C@H](O)CC[C@]4(C)[C@H]3C[C@H](O)[C@]12C :: 40.0682
C[C@H](CCC(=O)O)[C@H]1CC[C@H]2[C@@H]3CC[C@@H]4C[C@H](O)CC[C@]4(C)[C@H]3CC[C@]12C :: 8.574
C[C@H](CCC(=O)O)[C@H]1CC[C@H]2[C@@H]3[C@H](O)C[C@@H]4C[C@H](O)CC[C@]4(C)[C@H]3C[C@H](O)[C@]12C :: 86.2126

Task item: Entry C[C@H](CCC(=O)O)[C@H]1CC[C@H]2[C@@H]3CC[C@@H]4C[C@H](O)CC[C@]4(C)[C@H]3C[C@H](O)[C@]12C has what RLU?
Reply: -0.4375

* * *

Target: mouse Tas2r144 (Mus musculus)
Construct: expressed in transfected cells; host or cells: HEK293T-Gα16gust44
Experiment: Calcium imaging assay (FLIPR), HEK293T-Gα16gust44 cells transfected with mouse Tas2r144
Assay type: cell-based
Conditions: Time 32.781 s
Reported RLU is given for each of the following compounds.
Supply the numeric figure in RLU, leaving out any unit text.

Worked cases, answers included:
C[C@H](CCC(=O)NCC(=O)O)[C@H]1CC[C@H]2[C@@H]3[C@H](O)C[C@@H]4C[C@H](O)CC[C@]4(C)[C@H]3C[C@H](O)[C@]12C :: 202.624
C[C@H](CCC(=O)O)[C@H]1CC[C@H]2[C@@H]3[C@H](O)C[C@@H]4C[C@H](O)CC[C@]4(C)[C@H]3C[C@H](O)[C@]12C :: 422.903
C[C@H](CCC(=O)NCCS(=O)(=O)O)[C@H]1CC[C@H]2[C@@H]3[C@H](O)C[C@@H]4C[C@H](O)CC[C@]4(C)[C@H]3C[C@H](O)[C@]12C :: 233.393

Task item: Entry C[C@H](CCC(=O)NCCS(=O)(=O)O)[C@H]1CC[C@H]2[C@@H]3CC[C@@H]4C[C@H](O)CC[C@]4(C)[C@H]3CC[C@]12C has what RLU?
Reply: 71.1245

* * *

Reported RLU, fluorescence trace is given for each of the following compounds.
Biological target: human TAS2R4 (Homo sapiens, UniProt Q9NYW5)
Construct: expressed in transfected cells; host or cells: HEK293T-Gα16gust44
Test: Calcium imaging assay (FLIPR), HEK293T-Gα16gust44 cells transfected with human TAS2R4; further: test concentration or dose not given here
Format: cell-based
Details: Time (s) 60.781 (TCA, TLCA: 60.782)
Supply the numeric figure in RLU, leaving out any unit text.

Worked cases, answers included:
C[C@H](CCC(=O)O)[C@H]1CC[C@H]2[C@@H]3[C@@H](O)C[C@@H]4C[C@H](O)CC[C@]4(C)[C@H]3CC[C@]12C :: 389
C[C@H](CCC(=O)NCC(=O)O)[C@H]1CC[C@H]2[C@@H]3[C@H](O)C[C@@H]4C[C@H](O)CC[C@]4(C)[C@H]3C[C@H](O)[C@]12C :: 939.945

Task item: Look up RLU, fluorescence trace with human TAS2R4 (Homo sapiens, UniProt Q9NYW5) for this compound: C[C@H](CCC(=O)NCCS(=O)(=O)O)[C@H]1CC[C@H]2[C@@H]3[C@H](O)C[C@@H]4C[C@H](O)CC[C@]4(C)[C@H]3C[C@H](O)[C@]12C
Reply: 601.608

* * *

Molecular target: mouse Tas2r144 (Mus musculus, UniProt Q7TQB8)
Construct: expressed in transfected cells; host or cells: HEK293T-Gα16gust44
Sequence (Q7TQB8 whole entry): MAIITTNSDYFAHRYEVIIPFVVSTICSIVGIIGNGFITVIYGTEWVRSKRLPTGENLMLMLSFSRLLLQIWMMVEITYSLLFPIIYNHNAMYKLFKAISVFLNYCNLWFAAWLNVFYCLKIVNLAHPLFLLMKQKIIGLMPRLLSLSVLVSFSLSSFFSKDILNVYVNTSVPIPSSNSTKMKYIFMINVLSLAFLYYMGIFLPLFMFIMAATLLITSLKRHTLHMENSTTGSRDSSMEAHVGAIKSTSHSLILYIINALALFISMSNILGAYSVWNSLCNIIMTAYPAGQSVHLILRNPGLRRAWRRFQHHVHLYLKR
Assay: Calcium imaging assay (FLIPR), HEK293T-Gα16gust44 cells transfected with mouse Tas2r144
Assay type: cell-based
Settings: Time 96.781 s
attributeMeasured: RLU (RLU)
Supply the numeric figure in RLU, leaving out any unit text.

Worked cases, answers included:
C[C@H](CCC(=O)NCCS(=O)(=O)O)[C@H]1CC[C@H]2[C@@H]3[C@H](O)C[C@@H]4C[C@H](O)CC[C@]4(C)[C@H]3C[C@H](O)[C@]12C :: 507.965
C[C@H](CCC(=O)O)[C@H]1CC[C@H]2[C@@H]3[C@H](O)C[C@@H]4C[C@H](O)CC[C@]4(C)[C@H]3C[C@H](O)[C@]12C :: 562.136
C[C@H](CCC(=O)NCC(=O)O)[C@H]1CC[C@H]2[C@@H]3[C@H](O)C[C@@H]4C[C@H](O)CC[C@]4(C)[C@H]3C[C@H](O)[C@]12C :: 381.14

Task item: Entry C[C@H](CCC(=O)NCCS(=O)(=O)O)[C@H]1CC[C@H]2[C@@H]3CC[C@@H]4C[C@H](O)CC[C@]4(C)[C@H]3CC[C@]12C has what RLU?
Reply: 404.326

* * *

Target: human TAS2R1 (Homo sapiens, UniProt Q9NYW7)
Construct: expressed in transfected cells; host or cells: HEK293T-Gα16gust44
Sequence (Q9NYW7 whole entry): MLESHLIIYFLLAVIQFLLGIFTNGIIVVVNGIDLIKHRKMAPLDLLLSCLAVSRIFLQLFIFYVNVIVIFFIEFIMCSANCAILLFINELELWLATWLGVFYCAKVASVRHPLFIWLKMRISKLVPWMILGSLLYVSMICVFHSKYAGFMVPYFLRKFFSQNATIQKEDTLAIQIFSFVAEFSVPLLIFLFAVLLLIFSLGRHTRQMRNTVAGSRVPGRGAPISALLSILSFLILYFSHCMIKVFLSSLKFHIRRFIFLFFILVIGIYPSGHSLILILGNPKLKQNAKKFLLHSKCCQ
Experiment: Calcium imaging assay (FLIPR), HEK293T-Gα16gust44 cells transfected with human TAS2R1
Assay type: cell-based
Settings: Time 112.796 s
attributeMeasured: RLU (RLU)
Supply the numeric figure in RLU, leaving out any unit text.

Worked cases, answers included:
C[C@H](CCC(=O)O)[C@H]1CC[C@H]2[C@@H]3CC[C@@H]4C[C@H](O)CC[C@]4(C)[C@H]3CC[C@]12C :: 864.824
C[C@H](CCC(=O)O)[C@H]1CC[C@H]2[C@@H]3[C@H](O)C[C@@H]4C[C@H](O)CC[C@]4(C)[C@H]3CC[C@]12C :: 643.349
C[C@H](CCC(=O)O)[C@H]1CC[C@H]2[C@@H]3[C@H](O)C[C@@H]4C[C@H](O)CC[C@]4(C)[C@H]3C[C@H](O)[C@]12C :: 530.288

Now consider the entry below.
Task item: Entry C[C@H](CCC(=O)O)[C@H]1CC[C@H]2[C@@H]3[C@@H](O)C[C@@H]4C[C@H](O)CC[C@]4(C)[C@H]3CC[C@]12C has what RLU?
Reply: 357.544
